B1: library; a variant is named by its letters at N, in order (parent)
chain: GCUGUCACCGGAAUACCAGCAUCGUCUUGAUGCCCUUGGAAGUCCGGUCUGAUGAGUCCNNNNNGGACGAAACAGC

variants of: B1; test: normalized RNA/DNA level without ligand (relative to sTRSVctl = 100) (log10 (% of sTRSVctl)); higher = less ribozyme self-cleavage, higher mRNA level; details: HEK293T, reporter: mCherry (pCS4076), ligand present: no
Answer each item with its documented normalized RNA/DNA level without ligand (log10).
Keep the answer to the number alone.

Request: Could you tell me which normalized RNA/DNA level without ligand (log10) is on file for GUCCU ?
Result: 2

Request: Could you tell me which normalized RNA/DNA level without ligand (log10) is on file for AACUA ?
Result: 1.77

Request: Could you tell me which normalized RNA/DNA level without ligand (log10) is on file for UCCAA ?
Result: 1.84

Request: Could you tell me which normalized RNA/DNA level without ligand (log10) is on file for CUAAC ?
Result: 1.85
